Tested on: SULT2A1
Assay: SULT2A1 enzyme activity assay: sulfate conjugation of DHEA with 35S-PAPS, COS-1 cytosol preparations of recombinant allozymes
Assay type: biochemical, human
Settings: apparent Km for PAPS in the presence of 5 μM DHEA; read-out: PAPS Km
Each entry below carries its reported Km.

MOLECULE	Km [nM]
63Pro/261Thr: SULT2A1 polypeptide with a proline at position 63 and a threonine at position 261 (double variant) (protein, UniProt Q06520 1-285, looked up, variant A63P A261T) Sulfotransferase 2A1: MSDDFLWFEGIAFPTMGFRSETLRKVRDEFVIRDEDVIILTYPKSGTNWLAEILCLMHSKGDPKWIQSVPIWERSPWVESEIGYTALSETESPRLFSSHLPIQLFPKSFFSSKAKVIYLMRNPRDVLVSGYFFWKNMKFIKKPKSWEEYFEWFCQGTVLYGSWFDHIHGWMPMREEKNFLLLSYEELKQDTGRTIEKICQFLGKTLEPEELNLILKNSSFQSMKENKMSNYSLLSVDYVVDKAQLLRKGVSGDWKNHFTVTQAEDFDKLFQEKMADLPRELFPWE	11.4
Ala63Pro: SULT2A1 allozyme having a proline at amino acid residue 63 in place of alanine (protein, UniProt Q06520 1-285, looked up, variant A63P) Sulfotransferase 2A1: MSDDFLWFEGIAFPTMGFRSETLRKVRDEFVIRDEDVIILTYPKSGTNWLAEILCLMHSKGDPKWIQSVPIWERSPWVESEIGYTALSETESPRLFSSHLPIQLFPKSFFSSKAKVIYLMRNPRDVLVSGYFFWKNMKFIKKPKSWEEYFEWFCQGTVLYGSWFDHIHGWMPMREEKNFLLLSYEELKQDTGRTIEKICQFLGKTLEPEELNLILKNSSFQSMKENKMSNYSLLSVDYVVDKAQLLRKGVSGDWKNHFTVAQAEDFDKLFQEKMADLPRELFPWE	8.2
Lys227Glu: SULT2A1 allozyme having a glutamate at amino acid residue 227 in place of a lysine (protein, UniProt Q06520 1-285, looked up, variant K227E) Sulfotransferase 2A1: MSDDFLWFEGIAFPTMGFRSETLRKVRDEFVIRDEDVIILTYPKSGTNWLAEILCLMHSKGDAKWIQSVPIWERSPWVESEIGYTALSETESPRLFSSHLPIQLFPKSFFSSKAKVIYLMRNPRDVLVSGYFFWKNMKFIKKPKSWEEYFEWFCQGTVLYGSWFDHIHGWMPMREEKNFLLLSYEELKQDTGRTIEKICQFLGKTLEPEELNLILKNSSFQSMKENEMSNYSLLSVDYVVDKAQLLRKGVSGDWKNHFTVAQAEDFDKLFQEKMADLPRELFPWE	10.2
Ala261Thr: SULT2A1 allozyme having a threonine at amino acid 261 in place of an alanine (protein) MSDDFLWFEGIAFPTMGFRSETLRKVRDEFVIRDEDVIILTYPKSGTNWLAEILCLMHSKGDAKWIQSVPIWERSPWVESEIGYTALSESESPRLFSSHLPIQLFPKSFFSSKAKVIYLMRNPRDVLVSGYFFWKNMKFIKKPKSWEEYFEWFCQGTVLYGSWFDHIHGWMPMREEKNFLLLSYEELKQDTGRTIEKICQFLGKTLEPEELNLILKNSSFQSMKENKMSNYSLLSVDYVVDKAQLLRKGVSGDWKNHFTVTQAEDFDKLFQEKMADLPRELFPWE	22.7
WT: recombinant wild type (reference) human SULT2A1 polypeptide, SEQ ID NO:3, expressed in COS-1 cells (protein, listed as Homo Sapiens) MSDDFLWFEGIAFPTMGFRSETLRKVRDEFVIRDEDVIILTYPKSGTNWLAEILCLMHSKGDAKWIQSVPIWERSPWVESEIGYTALSESESPRLFSSHLPIQLFPKSFFSSKAKVIYLMRNPRDVLVSGYFFWKNMKFIKKPKSWEEYFEWFCQGTVLYGSWFDHIHGWMPMREEKNFLLLSYEELKQDTGRTIEKICQFLGKTLEPEELNLILKNSSFQSMKENKMSNYSLLSVDYVVDKAQLLRKGVSGDWKNHFTVAQAEDFDKLFQEKMADLPRELFPWE	21.8
